Data origin, for the record: ChEMBL document CHEMBL2057140

Reported log10 IC50 by item:
Experiment: Immunosuppressive activity in BALB/c mouse T cells assessed as inhibition of ConA-induced T cell proliferation incubated 24 hrs post ConA-induction for 72 hrs by MTT assay
Assay type: functional, cell-based
reported metric: log10 IC50 (log10 of the value in µM)

{"smiles string": "COc1cc(-c2nnc(SCc3ccc([N+](=O)[O-])cc3)o2)ccc1O", "log10 IC50": 1.15}
{"smiles string": "COc1cc(-c2nnc(SCc3ccc(F)cc3)o2)ccc1OCc1ccc(F)cc1", "log10 IC50": 1.11}
{"smiles string": "COc1cc(-c2nnc(SCc3ccc(F)cc3)o2)ccc1O", "log10 IC50": 0.91}
{"smiles string": "COc1cc(-c2nnc(SCc3cc(F)cc(F)c3)o2)ccc1OCc1cc(F)cc(F)c1", "log10 IC50": 1.16}
{"smiles string": "COc1cc(-c2nnc(SCc3ccccc3)o2)ccc1OCc1ccccc1", "log10 IC50": 1.12}
{"smiles string": "COc1cc(-c2nnc(SCc3c(F)cccc3F)o2)ccc1OCc1c(F)cccc1F", "log10 IC50": 0.72}
{"smiles string": "COc1cc(-c2nnc(SCc3ccccc3)o2)ccc1O", "log10 IC50": 0.10}
{"smiles string": "COc1cc(-c2nnc(SCc3ccc(Cl)cc3)o2)ccc1O", "log10 IC50": 1.05}
{"smiles string": "COc1cc(-c2nnc(SCc3ccccc3F)o2)ccc1O", "log10 IC50": 0.76}
{"smiles string": "COc1cc(-c2nnc(SCc3ccccc3Br)o2)ccc1OCc1ccccc1Br", "log10 IC50": 0.94}
{"smiles string": "COc1cc(-c2nnc(SCc3cccc(Cl)c3)o2)ccc1OCc1cccc(Cl)c1", "log10 IC50": 1.20}
{"smiles string": "COc1cc(-c2nnc(SCc3ccc(C)cc3)o2)ccc1O", "log10 IC50": 0.79}
{"smiles string": "COc1cc(-c2nnc(SCc3cccc(Br)c3)o2)ccc1OCc1cccc(Br)c1", "log10 IC50": 0.96}
